We begin with a simple list: items and their reported pEC50.
- Test target: hSTING(R232) (Homo sapiens, UniProt Q86WV6, H232R)
- Sequence (Q86WV6 whole entry H232R): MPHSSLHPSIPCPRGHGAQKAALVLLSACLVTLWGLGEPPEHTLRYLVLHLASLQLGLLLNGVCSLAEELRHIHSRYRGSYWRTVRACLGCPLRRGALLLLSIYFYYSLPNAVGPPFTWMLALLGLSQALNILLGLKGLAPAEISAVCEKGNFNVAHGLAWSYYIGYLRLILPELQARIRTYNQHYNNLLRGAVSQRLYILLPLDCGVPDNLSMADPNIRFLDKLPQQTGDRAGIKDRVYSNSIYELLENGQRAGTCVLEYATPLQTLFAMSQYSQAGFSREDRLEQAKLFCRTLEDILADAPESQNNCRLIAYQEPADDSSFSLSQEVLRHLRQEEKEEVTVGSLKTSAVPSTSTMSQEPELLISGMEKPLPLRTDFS
- Test details: Luciferase reporter assay in HEK293T-hSTING-Luciferase cells, R232 (wild type) human STING
- Assay type: cell-based
- Conditions: 20 hr stimulation, read-out: R232 human activity (EC50 range)
pEC50: −log10 of the molar value.

Would you please look over these solved cases?
>  <Compound>
C[C@H]1c2ccc(C(=O)NCc3c(F)cc(F)cc3F)cc2N(Cc2c(F)cc(OCCCO)cc2F)C(=O)N1C [Example 81]

>  <pEC50>
> 6.00

$$$$
>  <Compound>
Cc1ncc(Cl)c(CN2C(=O)N(C)[C@@H](C)c3ccc(C(=O)NCc4c(F)cc(F)cc4F)cc32)c1F [Example 77]

>  <pEC50>
> 6.00

$$$$
>  <Compound>
CN1CCN(c2cccc(CNC(=O)c3ccc4c(c3)N(Cc3c(F)cccc3Cl)C(=O)N(C)C4)c2)CC1 [Example 31]

>  <pEC50>
< 5.00

$$$$

Ask: Which measured pEC50 value corresponds to C[C@H]1c2ccc(C(=O)NCc3cc(F)cc(OCCO)c3)cc2N(Cc2c(F)cccc2Cl)C(=O)N1C [Example 266] ?
Reply: < 5.00

Ask: GET /values?readout=pEC50&item= C[C@H]1c2ccc(C(=O)NCc3c(F)cc(F)cc3F)cc2N(Cc2c(Cl)cn(CCO)c(=O)c2F)C(=O)N1C [Example 297]
Reply: < 5.00

Ask: Give its pEC50 value. Item: CC1c2ccc(C(=O)NCc3c(F)cc(F)cc3F)cc2N(Cc2c(F)cccc2N(C)C)C(=O)N1C (stereo not drawn) [Example 175]
Reply: 5.00 to 6.00

Ask: Can you share its pEC50? I mean this compound: CNc1cccc(F)c1CN1C(=O)N(C)C(C)c2ccc(C(=O)NCc3c(F)cc(F)cc3F)cc21 (stereo not drawn) [Example 174]
Reply: > 6.00

Ask: Which pEC50 value belongs to CC1c2ncc(C(=O)NCc3c(F)cc(F)cc3F)cc2N(Cc2c(F)cccc2Cl)C(=O)N1C (stereo not drawn) [Example 148] ?
Reply: > 6.00

Ask: Dear colleague, I am looking for the recorded pEC50 of the following compound: CC1c2ccc(C(=O)NCc3c(F)cc(F)cc3F)cc2N(Cc2ccccc2F)C(=O)N1C (stereo not drawn) [Example 201]
Reply: > 6.00

====

- Test target: hSTING(R232) (Homo sapiens, UniProt Q86WV6, H232R)
- Test details: Luciferase reporter assay in HEK293T-hSTING-Luciferase cells, R232 (wild type) human STING
- Type: cell-based
- Conditions: 20 hr stimulation, read-out: R232 human activity (EC50 range)
- From the text: Stable Cell Line Generation • a) Stable STING expressing cells—Stable HEK293T STING-expressing cell lines were generated using plasmids purchased from Invivogen, CA, USA, that contain STING cDNA cloned into the pUNO-1 vector under hEF1-HTLV promoter and containing the Blasticidin selection cassette. […]
pEC50: −log10 of the molar value.
List of pEC50 values.

Here are 4 compounds together with their reported answers.
>  <Compound>
C[C@H]1c2ccc(C(=O)NCc3c(F)cc(F)cc3F)cc2N(Cc2c(F)cc(O)cc2F)C(=O)N1C

>  <pEC50>
> 6.00

$$$$
>  <Compound>
CN1Cc2ccc(C(=O)NCc3c(F)cc(F)cc3F)cc2N(Cc2cc(F)cc(F)c2)C1=O

>  <pEC50>
> 6.00

$$$$
>  <Compound>
CN1Cc2ccc(C(=O)NCc3c(F)cc(F)cc3F)cc2N(Cc2c(F)cccc2C#N)C1=O

>  <pEC50>
5.00 to 6.00

$$$$
>  <Compound>
Cc1cc(CN2C(=O)N(C)C(C)c3ccc(C(=O)NCc4c(F)cc(F)cc4F)cc32)on1 (centres unmarked)

>  <pEC50>
< 5.00

$$$$

# evaluate next
Ask: Look at this compound and give its reported pEC50. Cc1cccc(CN2C(=O)N(C)C(C)c3ccc(C(=O)NCc4c(F)cc(F)cc4F)cc32)c1F (centres unmarked)
Reply: > 6.00

====

- Test target: hSTING(R232) (Homo sapiens, UniProt Q86WV6, H232R)
- Test details: Luciferase reporter assay in HEK293T-hSTING-Luciferase cells, R232 (wild type) human STING
- Type: cell-based
- Conditions: 20 hr stimulation, read-out: R232 human activity (EC50 range)
pEC50: −log10 of the molar value.
Assay endpoint: pEC50

Please review the entries below; each comes with its answer.
>  <Compound>
Cc1nccc(CN2C(=O)N(C)C(C)c3ccc(C(=O)NCc4c(F)cc(F)cc4F)cc32)c1F (stereo not drawn) [Example 180]

>  <Test target>
hSTING(R232) (Homo sapiens, UniProt Q86WV6, H232R)

>  <pEC50>
> 6.00

$$$$
>  <Compound>
CC1c2ccc(C(=O)NCc3c(F)cc(F)cc3F)cc2N(Cc2c(F)cccc2C(F)(F)F)C(=O)N1C (stereo not drawn) [Example 196]

>  <Test target>
hSTING(R232) (Homo sapiens, UniProt Q86WV6, H232R)

>  <pEC50>
> 6.00

$$$$
>  <Compound>
C[C@H]1c2ccc(C(=O)NCc3c(F)cc(F)cc3F)cc2N(Cc2c(F)ccc(C(N)=O)c2Cl)C(=O)N1C [Example 186]

>  <Test target>
hSTING(R232) (Homo sapiens, UniProt Q86WV6, H232R)

>  <pEC50>
> 6.00

$$$$
>  <Compound>
COc1cccc2cc(CNC(=O)c3ccc4c(c3)N(Cc3c(F)cccc3Cl)C(=O)N(C)C4)oc12 [Example 47]

>  <Test target>
hSTING(R232) (Homo sapiens, UniProt Q86WV6, H232R)

>  <pEC50>
< 5.00

$$$$
>  <Compound>
Cc1ncc(Cl)c(CN2C(=O)N(C)C(C)c3ccc(C(=O)NCc4c(F)cc(F)cc4F)cc32)c1F (stereo not drawn) [Example 176]

>  <Test target>
hSTING(R232) (Homo sapiens, UniProt Q86WV6, H232R)

>  <pEC50>
> 6.00

$$$$

Ask: What value of pEC50 has been reported for the following compound? C[C@H]1c2ccc(C(=O)NCc3c(F)cc(F)cc3F)cc2N(Cc2cc(OCCCO)cc(F)c2F)C(=O)N1C [Example 283]
Reply: > 6.00

Ask: Data request, read-out pEC50, for COc1cccc(CNC(=O)c2ccc3c(c2)N(Cc2c(F)cccc2Cl)C(=O)N(C)[C@H]3C)c1F [Example 249]
Reply: 5.00 to 6.00

Ask: # input compound: CCN1Cc2ccc(C(=O)NCc3c(F)cc(F)cc3F)cc2N(Cc2cc(F)cc(F)c2)C1=O [Example 7] ; wanted: its pEC50
Reply: 5.00 to 6.00

Ask: Recorded pEC50 of CN1Cc2ccc(C(=O)NCc3c(F)cc(F)cc3F)cc2N(Cc2cn(C)nn2)C1=O [Example 55] , please.
Reply: < 5.00

Ask: Need pEC50 of C[C@H]1c2ccc(C(=O)NCc3c(F)cc(F)cc3F)cc2N(Cc2c(F)cc(OC[C@@H](O)CO)cc2F)C(=O)N1C [Example 147] , thanks.
Reply: > 6.00

Ask: Value lookup for pEC50; key = Cc1cc(CN2C(=O)N(C)Cc3ccc(C(=O)NCc4c(F)cc(F)cc4F)cc32)no1 [Example 33]
Reply: 5.00 to 6.00

Ask: Which measured pEC50 value corresponds to O=C(NCc1c(F)cc(F)cc1F)c1ccc2c(c1)N(Cc1c(F)cccc1Cl)C(=O)N(OCc1ccccc1)C2 [Example 68] ?
Reply: < 5.00

Ask: Which value of pEC50 has been reported for CC(=O)Nc1ccc(COC(=O)Oc2cc(F)c(CN3C(=O)N(C)[C@@H](C)c4ccc(C(=O)NCc5c(F)cc(F)cc5F)cc43)c(F)c2)cc1 [Example 85] in the records?
Reply: > 6.00

Ask: Given the entry C[C@H]1c2ccc(C(=O)NCc3c(F)cc(F)cc3F)cc2N(Cc2c(F)ccc(C(=O)O)c2F)C(=O)N1C [Example 142] , report its measured pEC50.
Reply: < 5.00

Ask: Which pEC50 is reported for this compound? C[C@H]1c2ccc(C(=O)NCc3c(F)cc(F)cc3F)cc2N(Cc2c(F)ccc(F)c2Cl)C(=O)N1C [Example 179]
Reply: > 6.00
